Consider the following molecules and their measured pIC50 readings.
System: Influenza A virus
method.description: Antiviral activity against Influenza A virus A/WSN/33(H1N1) infected in human 293T cells pretreated for 2 hrs followed by viral infection and measured after 24 hrs by Gaussia luciferase reporter gene assay
Type: functional, organism-based
experimental.context: A/WSN/1933(H1N1), HEK-293T
pIC50: −log10 of the molar value.
parameter.measured: pIC50

[[record]]
smiles_input = "CCOC(=O)COc1nc(N2CCCC2)nc2ccccc12"
number = 4.78

[[record]]
smiles_input = "O=C(COc1nc(N2CCCC2)nc2ccccc12)Nc1nccs1"
number = 4.40

[[record]]
smiles_input = "CN(C)c1nc(OCC(=O)Nc2ccccc2)c2ccccc2n1"
number = 5.43

[[record]]
smiles_input = "O=C(NCCOc1nc(N2CCCC2)nc2ccccc12)c1cccs1"
number = 4.74

[[record]]
smiles_input = "O=C(COc1nc(Cl)nc2ccccc12)NCc1ccccc1"
number = 4.58

[[record]]
smiles_input = "O=C(O)COc1nc(N2CCCC2)nc2ccccc12"
number = 4.22

[[record]]
smiles_input = "O=C(NCCOc1nc(N2CCc3ccccc3C2)nc2ccccc12)c1ccccc1"
number = 5.38

[[record]]
smiles_input = "CCOc1ccccc1CNC(=O)COc1nc(N2CCCC2)nc2ccccc12"
number = 4.75

